system: human prostate (adenocarcinoma) cell line (VcaP); experiment: Growth inhibition of VcaP cells, WST-8 assay; type: cell-based; settings: 120 h, 5 days with test compound
METRIC: IC50

State its IC50 on human prostate (adenocarcinoma) cell line (VcaP): COc1ccc(NCCc2ccc(CN3CCN(C(=O)/C=C/c4ccc(Oc5ccc(OCc6ccc(C#N)cc6)cn5)c(Cl)c4)CC3)cc2)cc1.Cl.Cl [Example 669, dihydrochloride]
< 10 nM

----------
Entries and their melting point

Reference set, count: 5
Cc1cc(/C=C/C(=O)N2CCN(Cc3ccc(CCOc4ccc(C(C)C)cc4)cc3)CC2)cc(C)c1Oc1ccc(OCc2cncs2)cn1.Cl
199.2 to 200.9 °C
Cc1cc(/C=C/C(=O)N2CCN(Cc3ccc(Cl)cc3)CC2)cc(Cl)c1Oc1ccc(OCCc2ccc(Cl)cc2)cn1.Cl
220 to 220.9 °C
Cc1cc(/C=C/C(=O)N2CCN(Cc3ccc(CCOc4ccc(F)cc4)cc3)CC2)cc(Cl)c1Oc1ccc(OCc2ccccc2F)cn1.Cl
224 to 224.5 °C
COc1ccc(NCCc2ccc(CN3CCN(C(=O)/C=C/c4ccc(Oc5ccc(OCc6ccc(C#N)cc6)cn5)c(Cl)c4)CC3)cc2)cc1.Cl.Cl
219.5 to 222.3 °C
Cc1cc(/C=C/C(=O)N2CCN(Cc3ccc(CCOc4ccc(C(C)C)cc4)cc3)CC2)cc(Cl)c1Oc1ccc(OCc2ccccc2F)cn1.Cl
188 to 189.5 °C

Moving on to the next molecule.
// returns reported melting point for input `Cc1cc(/C=C/C(=O)N2CCN(Cc3ccc(CCOc4ccc(F)cc4)cc3)CC2)cc(Cl)c1Oc1ccc(OCc2ccc(Cl)cc2)cn1.Cl`
224.4 to 228.8 °C

----------
Entries and their melting point

Reference set, count: 4
Br.C/C(C(=O)N1CCN(Cc2ccc(CCOc3ccc(C)cc3)cc2)CC1)=C(/C)c1cc(C)c(Oc2ccc(OCc3ccc(C)cc3)cn2)c(Cl)c1
205.5 to 206.5 °C
Cc1cc(/C=C/C(=O)N2CCN(Cc3ccc(CCOc4ccc(F)cc4)cc3)CC2)cc(Cl)c1Oc1ccc(OCc2ccc(F)cc2)cn1.Cl
214.3 to 216.2 °C
Cc1cc(/C=C/C(=O)N2CCN(Cc3ccc(COc4ccc(F)cc4)c(F)c3)CC2)cc(Cl)c1Oc1ccc(OCc2ccc(C#N)cc2)cn1.Cl
218 to 220.5 °C
Cc1cc(/C=C/C(=O)N2CCN(Cc3ccc(CCOc4ccc(C(C)C)cc4)cc3)CC2)ccc1Oc1ccc(OCc2ccccc2Cl)cn1.Cl
178.2 to 178.9 °C

// returns reported melting point for input `COc1ccc(COc2ccc(Oc3c(C)cc(/C=C/C(=O)N4CCN(Cc5ccc(/C=C/COc6ccc(C)cc6)cc5)CC4)cc3C)nc2)cc1`
130 to 132 °C

// returns reported melting point for input `Cc1cc(/C=C/C(=O)N2CCN(Cc3ccc(CCOc4ccc(C(F)(F)F)cn4)cc3)CC2)cc(Cl)c1Oc1ccc(OCc2ccc(C#N)cc2)cn1.Cl`
193.7 to 194.2 °C

// returns reported melting point for input `Cc1cc(/C=C/C(=O)N2CCN(Cc3ccc(COc4ccc(OC(C)C)cc4)c(F)c3)CC2)cc(Cl)c1Oc1ccc(OCc2ccc(C#N)cc2)cn1.Cl`
141.8 to 141.9 °C

// returns reported melting point for input `C/C(=C\C(=O)N1CCN(Cc2ccc(CCOc3ccc(F)cc3)cc2)CC1)c1cc(C)c(Oc2ccc(OCc3ccc(C)cc3)cn2)c(Cl)c1.O=C(O)C(=O)O`
211.3 to 211.7 °C

// returns reported melting point for input `COc1ccc(OCCc2ccc(CN3CCN(C(=O)/C=C/c4cc(C)c(Oc5ccc(OCc6ccc(C)cc6)cn5)c(Cl)c4)CC3)cc2)cc1.Cl`
225.1 to 226.6 °C

// returns reported melting point for input `C/C(=C\c1cc(C)c(Oc2ccc(OCc3ccc(C)cc3)cn2)c(Cl)c1)C(=O)N1CCN(Cc2ccc(CCOc3ccc(C)cc3)cc2)CC1.Cl`
134.7 to 136.4 °C

// returns reported melting point for input `Cc1cc(/C=C/C(=O)N2CCN(Cc3ccc(CCOc4ccc(F)cc4)cc3)CC2)cc(Cl)c1Oc1ccc(OCc2ccccc2Cl)cn1.Cl`
211.9 to 214 °C

// returns reported melting point for input `Cc1cc(/C=C/C(=O)N2CCN(Cc3ccc(/C=C/COc4ccc(Br)cn4)cc3)CC2)cc(Cl)c1Oc1ccc(OCc2ccc(C#N)cc2)cn1.Cl`
145 to 145.8 °C

// returns reported melting point for input `Cc1ccc(COc2ccc(Oc3c(C)cc(/C=C/C(=O)N4CCN(Cc5ccc(CCOc6ccc(F)cc6)cc5)CC4)cc3Cl)nc2)cc1.Cl`
227.1 to 227.2 °C

// returns reported melting point for input `Cc1ccc(OCCCc2ccc(CN3CCN(C(=O)/C=C/c4cc(C)c(Oc5ccc(OCc6ccc(C#N)cc6)cn5)c(Cl)c4)CC3)cc2)cc1.Cl`
193 to 194.8 °C

----------
Entries and their melting point

Cc1ccc(OCCc2ccc(CN3CCN(C(=O)/C=C/c4cc(C)c(Oc5ccc(OCc6cncs6)cn5)c(C)c4)CC3)cc2)cc1.Cl
207 to 207.2 °C

// returns reported melting point for input `CCOc1cccc(OCCc2ccc(CN3CCN(C(=O)/C=C/c4cc(C)c(Oc5ccc(OCc6cncs6)cn5)c(C)c4)CC3)cc2)c1.Cl`
190.4 to 191.8 °C

// returns reported melting point for input `Cc1cc(/C=C/C(=O)N2CCN(Cc3ccc(CCOc4ccc(C(C)C)cc4)cc3)CC2)cc(Cl)c1Oc1ccc(OCc2cccnc2)cn1.Cl`
166.4 to 167.7 °C

// returns reported melting point for input `Cc1cc(/C=C/C(=O)N2CCN(Cc3ccc(CCOc4ccc(Cl)cc4)c(F)c3)CC2)cc(C)c1Oc1ccc(OCc2ccc(C#N)cc2)cn1.Cl`
240.5 to 243.5 °C

// returns reported melting point for input `Cc1cc(/C=C/C(=O)N2CCN(Cc3ccc(CCCOc4ccc(F)cc4)cc3)CC2)cc(Cl)c1Oc1ccc(OCc2ccc(C#N)cc2)cn1.Cl`
166.2 to 166.7 °C

// returns reported melting point for input `Cc1ccc(CN2CCN(C(=O)/C=C/c3cc(C)c(Oc4ccc(OCc5ccc(F)cc5)cn4)c(Cl)c3)CC2)cc1.Cl`
223.9 to 224.5 °C

----------
Test system: bicalutamide resistant human prostate cancer cell line established from LNCaP.FGC (LNCaP-Bic)
Assay: Growth inhibition of LNCaP-Bic cells, WST-8 assay
Type: cell-based
Settings: 120 h, 5 days with test compound
Experimental: The growth inhibition on a bicalutamide resistant human prostate cancer cell line established from LNCaP.FGC (LNCaP-Bic) (Hobisch A, et al. Prostate. 2006; 66(4):413-20.) was determined by a WST-8 assay according to the method of Singh A K, et al. (Cancer Lett. 1996 Oct. 1; 107(1): 109-15.). In this method, LNCaP-Bic cells were seeded in RPMI 1640 medium containing 10% fetal bovine serum in a 96-well microplate and incubated at 37° C. for 24 hours in the presence of 5% carbon dioxide. […]
Structures can show the parent of a compound that is named as a salt.
METRIC: IC50

Reference set, count: 3
COc1ccc(COc2ccc(Oc3c(C)cc(/C=C/C(=O)N4CCN(Cc5ccc(/C=C/COc6ccc(C)cc6)cc5)CC4)cc3C)nc2)cc1
< 10 nM
Cc1ccc(COc2ccc(Oc3c(C)cc(/C=C/C(=O)N4CCN(Cc5ccc(CCOc6ccc(F)cc6)cc5)[C@@H](C)C4)cc3Cl)nc2)cc1
< 10 nM
CCOc1cccc(OCCc2ccc(CN3CCN(C(=O)/C=C/c4cc(C)c(Oc5ccc(OCc6cncs6)cn5)c(C)c4)CC3)cc2)c1.Cl [Example 594, hydrochloride]
< 10 nM

// returns reported IC50 for input CC(C)c1ccc(OCCc2ccc(CN3CCN(C(=O)/C=C/c4ccc(Oc5ccc(OCc6ccc(C#N)cc6)cn5)c(F)c4)CC3)cc2)cc1 [Example 593, hydrochloride]
< 10 nM

// returns reported IC50 for input Cc1ccc(OCCc2ccc(CN3CCN(C(=O)/C=C/c4cc(C)c(Oc5ccc(OCc6cscn6)cn5)c(C)c4)CC3)cc2)cc1 [Example 601, hydrochloride]
< 10 nM

// returns reported IC50 for input COc1ccc(NCCc2ccc(CN3CCN(C(=O)/C=C/c4ccc(Oc5ccc(OCc6ccc(C#N)cc6)cn5)c(Cl)c4)CC3)cc2)cc1.Cl.Cl [Example 669, dihydrochloride]
< 10 nM

----------
Entries and their melting point

Reference set, count: 2
COc1cccc(OCCc2ccc(CN3CCN(C(=O)/C=C/c4ccc(Oc5ccc(OCc6ccc(F)cc6)cn5)c(Cl)c4)CC3)cc2)c1.Cl
201.5 to 202 °C
Cc1ccc(OCCc2ccc(CN3CCN(C(=O)/C=C/c4cc(C)c(Oc5ccc(OCc6ccc(Cl)cc6)cn5)c(Cl)c4)CC3)cc2)cc1.Cl
220.1 to 220.3 °C

Moving on to the next compound.
// returns reported melting point for input `COc1ccc(Oc2ccc3cc(CN4CCN(C(=O)/C=C/c5cc(C)c(Oc6ccc(OCc7ccccc7Cl)cn6)c(Cl)c5)CC4)ccc3n2)cc1.Cl`
228 to 228.9 °C

Reference source for all entries: patent US8722663B2
